target: furin, P09958; assay: furin cleavage Z-score vs untreated control; higher = more cleavage, active = 3.5 or more, inactive = 1 or less, 8 variable residues between constant flanks; settings: 30 min;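 also: purified furin at 1:10 enzyme:substrate in 50 mM HEPES pH 7.5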
Sequence (P09958 whole entry): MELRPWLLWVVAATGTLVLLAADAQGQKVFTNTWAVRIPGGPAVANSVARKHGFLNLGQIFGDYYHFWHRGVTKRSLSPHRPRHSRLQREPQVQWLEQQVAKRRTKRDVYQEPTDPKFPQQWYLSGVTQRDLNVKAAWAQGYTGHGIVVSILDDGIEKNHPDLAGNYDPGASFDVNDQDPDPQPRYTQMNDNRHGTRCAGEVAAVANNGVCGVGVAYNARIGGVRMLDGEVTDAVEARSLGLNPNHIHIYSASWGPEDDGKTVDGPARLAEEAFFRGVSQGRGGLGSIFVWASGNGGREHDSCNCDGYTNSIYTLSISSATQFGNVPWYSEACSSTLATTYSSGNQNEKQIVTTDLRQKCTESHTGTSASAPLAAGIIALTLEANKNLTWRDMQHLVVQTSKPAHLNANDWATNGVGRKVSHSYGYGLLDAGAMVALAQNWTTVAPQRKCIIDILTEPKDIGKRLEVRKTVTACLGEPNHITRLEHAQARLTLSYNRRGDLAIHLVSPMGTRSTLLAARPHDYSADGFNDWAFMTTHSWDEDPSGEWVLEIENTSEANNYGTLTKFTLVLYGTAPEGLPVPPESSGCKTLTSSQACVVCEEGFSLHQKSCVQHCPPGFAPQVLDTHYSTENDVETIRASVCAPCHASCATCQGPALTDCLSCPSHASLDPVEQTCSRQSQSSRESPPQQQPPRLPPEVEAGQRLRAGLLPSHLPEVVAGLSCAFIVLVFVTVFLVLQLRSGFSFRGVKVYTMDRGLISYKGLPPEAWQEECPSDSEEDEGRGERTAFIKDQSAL
The other results are listed elsewhere or left out. How many sequences the whole screen found active is unknown.
quantity: furin cleavage Z-score
Note: the reply should be a number with no unit written.

Qu. Query (sequence): CAELPCHRPSAGNASASA [HC2325] ; field requested: furin cleavage Z-score
Ans. 0.0984

Qu. Input CARVRRAAAEAGNASASA [FS-2104]
Ans. 8.72

Qu. Input CAQEECSQHLAGNASASA [HC1682]
Ans. 1.15

Qu. Input CAGWSRARRDAGNASASA [FS-334]
Ans. 9.61

Qu. Input CARSKRNIIGAGNASASA [FS-1869]
Ans. 8.95

Qu. Input CARSKRDPIIAGNASASA [FS-3206]
Ans. 1.06

Qu. Input CATVPCSGSWAGNASASA [HC1850]
Ans. -1.24

Qu. Input CAVYRRSLGKAGNASASA [FS-2202]
Ans. -0.11

Qu. Input CARSPRSPPGAGNASASA [FS-3091]
Ans. 4.13

Qu. Input CARSARSPPGAGNASASA [FS-3074]
Ans. -0.311

Qu. Input CANDSRHLRNAGNASASA [FS-1647]
Ans. 1.57

Qu. Input CAGAERKMRDAGNASASA [FS-653]
Ans. 3.61

Qu. Input CAEVVCSTWVAGNASASA [HC134]
Ans. -0.318

Qu. Input CAMEEGSQHLAGNASASA [HC2]
Ans. 1.87

Qu. Input CARSSRSPPGAGNASASA [FS-3098]
Ans. 1.37

Qu. Input CAYLTRDPTTAGNASASA [HC1562]
Ans. -1.7

Qu. Input CAESKRLVDTAGNASASA [FS-1880]
Ans. 0.434

Qu. Input CAAETTVRLRAGNASASA [HC927]
Ans. 0.0108

Qu. Input CASNCRHERDAGNASASA [FS-722]
Ans. 1.08

Qu. Input CARSVRPVEFAGNASASA [FS-3100]
Ans. -1.68

Qu. Input CAEREVPCHRAGNASASA [HC2432]
Ans. 1.7
